The values you see were collected from paper PMC12305709.

Target: T1, MOV10NTD-UPF1hel (Chimera 3) (Homo sapiens, UniProt Q9HCE1 1-264+=GSAGAAGSGA+Q92900-2:295-914, internal_change)
T1 sequence: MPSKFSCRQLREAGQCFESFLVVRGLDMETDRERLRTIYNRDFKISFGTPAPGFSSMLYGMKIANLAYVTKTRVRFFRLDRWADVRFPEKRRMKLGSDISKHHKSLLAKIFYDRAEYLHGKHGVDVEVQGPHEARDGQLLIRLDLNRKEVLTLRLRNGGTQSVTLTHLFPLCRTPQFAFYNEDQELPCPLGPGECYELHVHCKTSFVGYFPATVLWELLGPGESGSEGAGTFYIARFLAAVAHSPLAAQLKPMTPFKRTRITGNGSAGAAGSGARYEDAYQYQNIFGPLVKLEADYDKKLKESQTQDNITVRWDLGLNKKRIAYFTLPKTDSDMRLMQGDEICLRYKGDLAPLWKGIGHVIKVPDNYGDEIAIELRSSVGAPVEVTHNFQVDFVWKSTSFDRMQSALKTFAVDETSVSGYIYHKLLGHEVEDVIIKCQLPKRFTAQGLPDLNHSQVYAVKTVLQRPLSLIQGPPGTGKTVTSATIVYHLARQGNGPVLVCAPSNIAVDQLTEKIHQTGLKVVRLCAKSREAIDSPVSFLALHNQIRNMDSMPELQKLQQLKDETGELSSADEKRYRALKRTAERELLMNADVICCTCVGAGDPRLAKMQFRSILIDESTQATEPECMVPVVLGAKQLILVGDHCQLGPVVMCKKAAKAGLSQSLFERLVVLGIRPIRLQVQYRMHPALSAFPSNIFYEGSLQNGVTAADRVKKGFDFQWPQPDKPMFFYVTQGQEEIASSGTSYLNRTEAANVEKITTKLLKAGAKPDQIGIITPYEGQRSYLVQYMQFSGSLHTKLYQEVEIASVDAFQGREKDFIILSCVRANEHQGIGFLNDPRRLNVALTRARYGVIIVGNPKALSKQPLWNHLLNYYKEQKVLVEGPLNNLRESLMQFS
Experiment: fluorescence anisotropy; no nucleotide; 1 mM Mg2+; 20 mM Hepes pH 7.5, 100 mM NaCl, 1 mM MgCl2, 100 ug/ml BSA; 5 nM RNA; 30 min room temperature, read at 25 C
Conditions: protein: recombinant; tags: 6xHis, His-Trx or His-GST fusion in E. coli; label: 5' 6-FAM; single strand
attributeMeasured: Kd (nM)
One number for each entry, in nM.

Input line: Which Kd reading was recorded for the binder UUUUUUUUUUUU (ssRNA) [U12 RNA] ?
Output line: 36
